As shown below, each of these sequences has a reported pull-down binding Z-score value.
- Tested on: TO-3-N3 (biotin conjugate)
- experiment.summary: pull-down binding Z-score (relative to library population); higher = stronger binding
- assay.setup: RNA library: Library-2
Reply: number alone, nothing else.

Examples from the recorded data:
GAGACACCCGCUACCUGGUGUU [hsa-mir-4321] : -0.271
CGGGCCCCUCCCCUCAAUGGGCCCG [hsa-mir-5685] : -0.255

Please look at the following sequence next.
get_value(item= CAACAGUUCUGUAGCGCAAUUGUG [hsa-mir-203a] , readout=pull-down binding Z-score) returns 0.0356

###

- System: G-clamp-N3 (biotin conjugate)
- experiment.summary: pull-down binding Z-score (relative to library population); higher = stronger binding
- assay.setup: RNA library: Library-1 (pre-miRNA loops + repeats)
As shown below, each of these sequences has a reported pull-down binding Z-score value.
Reply: number alone, nothing else.

UGGAGGCUGCAGUGAGCCGAGAUCGAGCCACUGUACUCCA [hsa-mir-1273e] : 0.0244
GAGGAUGCAGGAGAGGAAGGGGGCUUCUUUUUGACGCCUACUUCAUCAGCUGCUCCUC [hsa-mir-4330] : 0.824
GGUAGGUUACGUCAUGCUGUUCUACC [hsa-mir-140] : 0.599
GAGUUGCUGAGUGGGUUGAUCUC [hsa-mir-6764] : 0.494
AUAGAACAUUGACAUCAACACUAG [hsa-mir-4278] : -2.05

GET /values?item= GCAGAUAGUGGUCCUCUCCGUGCUACCGC [hsa-mir-106b] &system= G-clamp-N3 (biotin conjugate) returns pull-down binding Z-score: -0.198

###

- System: TO-3-N3-2 (biotin conjugate)
- experiment.summary: pull-down binding Z-score (relative to library population); higher = stronger binding
- assay.setup: RNA library: Library-2
reported.endpoint: pull-down binding Z-score
Reply: number alone, nothing else.

UUGGCGUUAAGAUUCUAAAAUUAUCUCCAG [hsa-mir-16-1] : -0.307

get_value(item= CCACAUAGAUCAUCCAAAUCCUAAAGGAUUUUGUGACUUAAAAGG [SHAPE_invivo_SARS-CoV-2_Motif_251] , readout=pull-down binding Z-score) returns -0.357

get_value(item= UUGUGAAACACAGGUGUUUUUUAACCUCAC [hsa-mir-6841] , readout=pull-down binding Z-score) returns 0.0964

get_value(item= UUCUGUUGUCAGAAAGAAGAGAA [hsa-mir-1283-1] , readout=pull-down binding Z-score) returns -0.107

get_value(item= GGAAUUUGAACC [IAV_invivo_PB2_1_Motif_28+IAV_invivo_PB2_1_Motif_28] , readout=pull-down binding Z-score) returns -0.147

get_value(item= UAGGAGCUGUGCCUCCUGGCCUAUUCCUGUUCGUG [hsa-mir-8056] , readout=pull-down binding Z-score) returns -0.167

###

- System: TO-N3 (biotin conjugate)
- experiment.summary: pull-down binding Z-score (relative to library population); higher = stronger binding
- assay.setup: RNA library: Library-2
As shown below, each of these sequences has a reported pull-down binding Z-score value.
Reply: number alone, nothing else.

CCAAAUCAGAAAAGGAUUUGG [hsa-mir-4520-1] : -0.698

get_value(item= `CGUGGUAUUCUUGCUAGUUACACUAGCCAUCCUUACUGCG` , readout=pull-down binding Z-score) returns -1.1

get_value(item= `GCUCUACAAGAUGCUUAUUACAGAGC` , readout=pull-down binding Z-score) returns 1.52

###

- System: TO-N3-2 (biotin conjugate)
- experiment.summary: pull-down binding Z-score (relative to library population); higher = stronger binding
- assay.setup: RNA library: Library-2
// label = TRUE if pull-down binding Z-score is not less than 0.6, otherwise FALSE

# count of solved cases: 3
AUUACUGCAAAAUGGUAUGAAUGGACGUACCAUAUUGGGUAGU [DMSMaPseq_invitro_SARS-CoV-2_Motif_194] : FALSE
GCUUAUGGGGAUAUUGUGGUUGAUCUGUUCUAUCCAGAUGAC [hsa-mir-1261] : TRUE
AGACAGCCUGAGUUGGAGGCUCAUCUUCACUUCUUGCUGUGU [hsa-mir-3168] : FALSE

Q. Could you tell me if the measured pull-down binding Z-score of `AUAAUAAGAGGCUGGAUUUUUGGUACUACUUUAGAUUCGAAGACCCAGUCCCUACUUAUUGU` reaches 0.6 or more?
A. FALSE

Q. Could you tell me if the measured pull-down binding Z-score of AUGUCAUAUUGGAGUUGGACUGCAGGGCUUCCUUUACACAAUAAAUAUUGUAUGAAGUGCUGAUGUAACCUUUACUGCAGCAUGACAU [hsa-mir-3976] reaches 0.6 or more?
A. FALSE

Q. Could you tell me if the measured pull-down binding Z-score of `AGGUCCAGACAUGUUCCUCGGAACUUGUCGGCGUUGUCCU` reaches 0.6 or more?
A. FALSE

Q. Could you tell me if the measured pull-down binding Z-score of GAGCUGGGUGGGGUGCCAAGCCU [hsa-mir-6819] reaches 0.6 or more?
A. TRUE

Q. Could you tell me if the measured pull-down binding Z-score of AUACUGGAGCAAUAGAUACAGUU [hsa-mir-3692] reaches 0.6 or more?
A. FALSE

Q. Could you tell me if the measured pull-down binding Z-score of AAUGCAGUCUGCACCCUGCUGCAUU [hsa-mir-6504] reaches 0.6 or more?
A. FALSE

Q. Could you tell me if the measured pull-down binding Z-score of `UAGUACAACAGGAGUCACCUUUUGUUAUGAUGUCAGCACCACCUGCUCAGUAUGAACUUAAGCAUGGUACAUUUACUUGUGCUA` reaches 0.6 or more?
A. FALSE

Q. Could you tell me if the measured pull-down binding Z-score of GGCCAGGUUUCAAGGCC [IAV_invivo_PA_3_Motif_22+IAV_invivo_PA_3_Motif_22] reaches 0.6 or more?
A. FALSE

Q. Could you tell me if the measured pull-down binding Z-score of UAUAUGCCUUAUUUCUUUACUUUAUUGCUACAAUUGUGUACUUUUACUAGAAGUACAAAUUCUAGAAUUAAAGCAUCUA [DMSMaPseq_invitro_SARS-CoV-2_Motif_128] reaches 0.6 or more?
A. FALSE

Q. Could you tell me if the measured pull-down binding Z-score of GAACACUAUUCCAUUGUGUUC [hsa-mir-588] reaches 0.6 or more?
A. FALSE

Q. Could you tell me if the measured pull-down binding Z-score of GUGCUUGGGACAUUUGAUACCGCAC [IAV_invivo_PB2_1_Motif_30+IAV_invivo_PB2_1_Motif_30] reaches 0.6 or more?
A. FALSE

Q. Could you tell me if the measured pull-down binding Z-score of GGGAGAGACGAACAGUCGAUUGCC [IAV_invivo_PB2_1_Motif_17+IAV_invivo_PB2_1_Motif_17] reaches 0.6 or more?
A. TRUE

Q. Could you tell me if the measured pull-down binding Z-score of AUGUUUGUCAAACAUAAGCAU [DMSMaPseq_invitro_SARS-CoV-2_Motif_200] reaches 0.6 or more?
A. FALSE

Q. Could you tell me if the measured pull-down binding Z-score of GCUGCCAUCUCCCACUGGCUGC [hsa-mir-4736] reaches 0.6 or more?
A. FALSE

###

As shown below, each of these sequences has a reported pull-down binding Z-score value.
- System: G-clamp-N3 (biotin conjugate)
- experiment.summary: pull-down binding Z-score (relative to library population); higher = stronger binding
- assay.setup: RNA library: Library-1 (pre-miRNA loops + repeats)
Reply: number alone, nothing else.

AGCUUUAUGUAUUCUGAAGUUAUUGAAAAUAAGAGCU [hsa-mir-3140] : -0.628
UCCAGGCAUCUGUGUCUG [hsa-mir-4669] : -0.0379
CAGAGUGUGCAUGGCAGGCU [hsa-mir-7156] : -0.349

get_value(item= ACCAAAAAUGAUAUGGGU [hsa-mir-7977] , readout=pull-down binding Z-score) returns 1.5

get_value(item= UCCCAGGAAAUUCACUUUAGGAAGUCCUAGGA [hsa-mir-5571] , readout=pull-down binding Z-score) returns 0.804

get_value(item= CCAUAAGCUGUCUAAAACUUCG [hsa-mir-4513] , readout=pull-down binding Z-score) returns -1.21

get_value(item= GAUUGGUCUGUGGUCCUCUC [hsa-mir-3615] , readout=pull-down binding Z-score) returns 0.109

get_value(item= UUUGCCAUUACUUUCAGUAGCAAA [hsa-mir-548c] , readout=pull-down binding Z-score) returns -0.417

get_value(item= UCAGUUUUGUAGCAUCAAAACU [hsa-mir-4521] , readout=pull-down binding Z-score) returns -0.216

###

- Test system: TO-N3-2 (biotin conjugate)
- experiment.summary: pull-down binding Z-score (relative to library population); higher = stronger binding
- assay.setup: RNA library: Library-2
// label = MET if pull-down binding Z-score is not less than 0.3, otherwise NOT MET

# count of solved cases: 5
CGGUGGUCCCUCCCG [hsa-mir-3687-1_3687-2] : MET
CAGUGAGCCAAGAUCGUGCCACUG [hsa-mir-1273d] : NOT MET
AGAAGCCCAGGUUCUGAAUCCCCU [hsa-mir-6734] : MET
GGAGAAGAACCC [IAV_invivo_PB2_1_Motif_3+IAV_invivo_PB2_1_Motif_3] : NOT MET
AGGCCGACGAGCAGCGCAUCCUCUUACCCGGCUA [hsa-mir-138-2] : MET

Q. Could you tell me if the measured pull-down binding Z-score of UAGUACAGGUGAGAUUGUACUG [hsa-mir-3920] reaches 0.3 or more?
A. NOT MET

Q. Could you tell me if the measured pull-down binding Z-score of GUGUUUUCUCCUUUAGAGAGAGCUG [hsa-mir-4299] reaches 0.3 or more?
A. MET

Q. Could you tell me if the measured pull-down binding Z-score of UAGCUUGUUUUGUGCUUGCUG [SHAPE_invivo_SARS-CoV-2_Motif_507] reaches 0.3 or more?
A. NOT MET

Q. Could you tell me if the measured pull-down binding Z-score of UGUUGGUUGAAGAUGCCUUUCAACA [hsa-mir-552] reaches 0.3 or more?
A. NOT MET

Q. Could you tell me if the measured pull-down binding Z-score of UUUGAAGUGUUCUAAAUGGUUCAAA [hsa-mir-424] reaches 0.3 or more?
A. NOT MET

Q. Could you tell me if the measured pull-down binding Z-score of GGCAGGUGUGGUUGGAGGAAGCAGCCUGAACCUGCC [hsa-mir-6778] reaches 0.3 or more?
A. MET

Where do these numbers come from? They come from the supplement of paper PMC11865577.
